assayed.target: SARS-CoV-2 spike protein on live virus, strain USA-WA1/2020 (SARS-CoV-2, WA01/2020 strain, UniProt P0DTC2 14-1273)
experimental.protocol: cell-based or functional assay
Live Neut, WA1/2020 IC50 (pM) for assorted binders
Enter your answer as a number in pM; do not include the unit.

binder	observed.result
antibody 2706 (antibody, V domains shown) VH: QVQLVQSGAEVKKPGSSVKVSCKASGGTFSTYAISWVRQAPGQGLEWMGGIIPLFATANYAQNFQGRVTITADKSTSTAYMELSSLRSEDTAVYYCASVRLHLEELSLSHQGDYYYGLDVWGQGTTVTVSS VL: DIQMTQSPSSLSASVADRVTITCQASQDISHYLNWYQQKPGKAPQLLIYDASKLETGAPSRFSGSGSGTDFTFTISSLQPEDIATYYCQQYDHLPLTFGGGSKVEIK	171

Now, please, on to the next binder.
Per the records, this binder ( antibody 2024 (antibody, V domains shown) VH: QVQLVQSGAEVKKPGASVKVSCKVSGYTLIELSMHWVRQAPGKGLEWMGGFDPEEGETIYAQKFQGRVTMTEDTSTDTAYMELSSLRSEDTAVYYCTTSPPVGATGAWFDPWGQGTLVTVSA VL: SYVLTQPPSVSVAPGKTARITCGGNNIGSKSVHWYQQKPGQAPVLVVYDDSDRPSGIPERFSGSNSGNTATLTISGLQAEDEADYYCSSYTSSSTVVFGGGTKLTVL ) has Live Neut, WA1/2020 IC50 (pM) equal to 95

Numbers sourced from patent US20230382979A1.
